# Measurement target: T1, recombinant human FGF23 (R179Q) (human, UniProt Q9GZV9 25-251)
# T1 construct: also called rhFGF23(R179Q); hFGF23(R179Q)
# T1 sequence (looked up): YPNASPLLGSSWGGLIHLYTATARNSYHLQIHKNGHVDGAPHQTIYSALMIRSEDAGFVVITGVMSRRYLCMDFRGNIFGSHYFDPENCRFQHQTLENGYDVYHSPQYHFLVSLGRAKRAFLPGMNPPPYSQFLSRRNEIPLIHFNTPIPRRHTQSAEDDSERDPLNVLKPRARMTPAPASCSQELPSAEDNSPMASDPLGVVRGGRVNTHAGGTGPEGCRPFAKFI
# Assay details: SPR, antibody captured on hIgG chip, rhFGF23(R179Q) analyte
Property label: pKd
For clarity, pKd is expressed as the negative log10 of concentration in mol/L.

UGX202 (antibody, human IgG1, kappa, V domains shown, also called HC:S59E, LC:N92Y; S59E/N92Y) VH: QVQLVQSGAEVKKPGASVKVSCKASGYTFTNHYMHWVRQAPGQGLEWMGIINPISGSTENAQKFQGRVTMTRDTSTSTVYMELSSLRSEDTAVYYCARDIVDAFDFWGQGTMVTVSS VL: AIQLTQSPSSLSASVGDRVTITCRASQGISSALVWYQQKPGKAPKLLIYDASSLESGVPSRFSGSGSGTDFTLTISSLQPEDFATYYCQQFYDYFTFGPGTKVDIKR
11.12
UGX156 (antibody, human IgG1, kappa, V domains shown, also called HC:I54F; I54F) VH: QVQLVQSGAEVKKPGASVKVSCKASGYTFTNHYMHWVRQAPGQGLEWMGIINPFSGSTSNAQKFQGRVTMTRDTSTSTVYMELSSLRSEDTAVYYCARDIVDAFDFWGQGTMVTVSS VL: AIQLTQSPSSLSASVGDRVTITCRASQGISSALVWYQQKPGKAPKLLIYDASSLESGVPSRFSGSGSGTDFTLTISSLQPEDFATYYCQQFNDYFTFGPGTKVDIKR
10.98
UGX201 (antibody, human IgG1, kappa, V domains shown, also called HC:S59E, LC:N92F; S59E/N92F) VH: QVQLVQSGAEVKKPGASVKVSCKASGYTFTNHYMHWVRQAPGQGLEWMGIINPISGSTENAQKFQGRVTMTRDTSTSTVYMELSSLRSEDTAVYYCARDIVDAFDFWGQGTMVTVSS VL: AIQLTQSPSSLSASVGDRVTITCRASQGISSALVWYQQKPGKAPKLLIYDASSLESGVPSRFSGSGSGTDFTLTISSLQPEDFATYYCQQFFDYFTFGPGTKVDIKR
11.29
UGX182 (antibody, human IgG1, kappa, V domains shown, also called HC:S59D, HC:V101I; S59D/V101I) VH: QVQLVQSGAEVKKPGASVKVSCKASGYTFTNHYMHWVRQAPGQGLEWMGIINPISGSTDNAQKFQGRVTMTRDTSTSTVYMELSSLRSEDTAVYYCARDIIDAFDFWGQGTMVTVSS VL: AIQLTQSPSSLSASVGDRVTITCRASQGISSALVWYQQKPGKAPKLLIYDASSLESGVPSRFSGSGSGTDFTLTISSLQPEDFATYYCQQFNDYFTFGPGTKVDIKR
11.02

Please turn your attention to the following entry.
Query :: Can you share its pKd? I mean this binder: Burosumab (antibody, human IgG1, kappa, V domains shown, Recombinant human IgG1 kappa; also called burosumab-twza; parental burosumab) VH: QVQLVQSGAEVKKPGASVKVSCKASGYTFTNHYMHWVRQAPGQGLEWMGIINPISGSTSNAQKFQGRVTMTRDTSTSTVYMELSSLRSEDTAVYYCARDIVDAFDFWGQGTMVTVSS VL: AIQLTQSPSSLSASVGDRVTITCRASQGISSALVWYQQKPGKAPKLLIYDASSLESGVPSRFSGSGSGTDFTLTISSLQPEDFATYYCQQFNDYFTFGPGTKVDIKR
Result :: 10.68

Sourced from patent US20260250371A1
